Provenance of the data: paper PMC4032265

- system_name: α1B adrenergic receptor (Homo sapiens)
- Sequence (P35368 whole entry): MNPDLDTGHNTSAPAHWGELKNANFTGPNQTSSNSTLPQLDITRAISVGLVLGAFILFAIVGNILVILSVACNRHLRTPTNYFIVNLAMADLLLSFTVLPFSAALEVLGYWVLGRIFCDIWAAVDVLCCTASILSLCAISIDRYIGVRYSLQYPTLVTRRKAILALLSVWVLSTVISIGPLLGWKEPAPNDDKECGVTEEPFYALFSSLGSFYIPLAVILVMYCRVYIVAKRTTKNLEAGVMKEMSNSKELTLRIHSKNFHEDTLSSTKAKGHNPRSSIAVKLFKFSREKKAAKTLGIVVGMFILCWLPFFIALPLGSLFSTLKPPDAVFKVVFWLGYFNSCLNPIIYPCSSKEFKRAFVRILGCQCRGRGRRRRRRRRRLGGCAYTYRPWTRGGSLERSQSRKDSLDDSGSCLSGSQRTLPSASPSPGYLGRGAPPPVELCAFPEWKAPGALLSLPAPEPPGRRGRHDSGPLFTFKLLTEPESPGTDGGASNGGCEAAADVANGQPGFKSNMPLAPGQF
- experiment_summary: PDSP radioligand binding, α1B
- run_parameters: read-out: % inhibition at 10 µM; single concentration 10 µM
Below, each of the molecules is paired with its reported inhibition at 10 µM value.

given_smiles: CNC(=O)[C@@]12C[C@@H]1[C@@H](n1cnc3c(NCc4cccc(Cl)c4)nc(Cl)nc31)[C@H](O)[C@@H]2O
inhibition at 10 µM, %: 30

given_smiles: CNC(=O)[C@@]12C[C@@H]1[C@@H](n1cnc3c(NCc4cccc(Cl)c4)nc(C#Cc4ccc(F)cc4)nc31)[C@H](O)[C@@H]2O
inhibition at 10 µM, %: 1

given_smiles: Fc1ccc(C#Cc2nc(NCc3cccc(Cl)c3)c3nc[nH]c3n2)cc1F
inhibition at 10 µM, %: 30

given_smiles: Clc1cccc(CNc2nc(Cl)nc3[nH]cnc23)c1
inhibition at 10 µM, %: 0

given_smiles: O[C@@H]1[C@H](O)[C@@H]2C[C@@H]2[C@H]1n1cnc2c(NCc3cccc(Cl)c3)nc(C#Cc3ccc(F)c(F)c3)nc21
inhibition at 10 µM, %: 19

given_smiles: CNC(=O)[C@@]12C[C@@H]1[C@@H](n1cnc3c(NC)nc(C#Cc4ccc(F)c(F)c4)nc31)[C@H](O)[C@@H]2O
inhibition at 10 µM, %: 11

given_smiles: O[C@@H]1[C@H](O)[C@@H]2C[C@@H]2[C@H]1n1cnc2c(NCc3cccc(Cl)c3)ncnc21
inhibition at 10 µM, %: 32

given_smiles: O[C@@H]1[C@H](O)[C@@H]2C[C@@H]2[C@H]1n1cnc2c(NC(C3CC3)C3CC3)nc(Cl)nc21
inhibition at 10 µM, %: 8

given_smiles: CNC(=O)[C@@]12C[C@@H]1[C@@H](n1cnc3c(NCc4cccc(Cl)c4)nc(C#Cc4ccccc4Cl)nc31)[C@H](O)[C@@H]2O
inhibition at 10 µM, %: 7

====

- system_name: 5HT1B serotonergic receptor (Homo sapiens, UniProt P28222)
- Sequence (P28222 whole entry): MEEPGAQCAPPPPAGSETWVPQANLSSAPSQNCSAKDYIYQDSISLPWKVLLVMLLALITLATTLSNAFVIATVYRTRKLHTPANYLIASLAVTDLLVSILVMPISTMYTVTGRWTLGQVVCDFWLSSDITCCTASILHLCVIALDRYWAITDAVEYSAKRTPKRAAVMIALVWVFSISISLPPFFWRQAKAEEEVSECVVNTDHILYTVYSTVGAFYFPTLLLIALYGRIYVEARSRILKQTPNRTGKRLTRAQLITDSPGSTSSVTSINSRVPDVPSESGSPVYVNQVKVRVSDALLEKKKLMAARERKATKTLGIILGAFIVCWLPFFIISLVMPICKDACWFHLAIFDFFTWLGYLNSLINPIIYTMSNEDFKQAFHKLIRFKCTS
- experiment_summary: PDSP radioligand binding, 5HT1B
- run_parameters: read-out: % inhibition at 10 µM; single concentration 10 µM
Below, each of the compounds is paired with its reported inhibition at 10 µM value.
readout_name: inhibition at 10 µM (%)

given_smiles: CNC(=O)[C@@]12C[C@@H]1[C@@H](n1cnc3c(NCc4cccc(Cl)c4)nc(C#Cc4ccc(F)cc4)nc31)[C@H](O)[C@@H]2O
uom: %
value: 0
--
given_smiles: CNC(=O)[C@@]12C[C@@H]1[C@@H](n1cnc3c(NC)nc(C#Cc4ccc(F)c(F)c4)nc31)[C@H](O)[C@@H]2O
uom: %
value: 15
--
given_smiles: O[C@@H]1[C@H](O)[C@@H]2C[C@@H]2[C@H]1n1cnc2c(NCc3cccc(Cl)c3)nc(C#Cc3ccc(F)c(F)c3)nc21
uom: %
value: 13
--
given_smiles: O[C@@H]1[C@H](O)[C@@H]2C[C@@H]2[C@H]1n1cnc2c(NCc3cccc(Cl)c3)ncnc21
uom: %
value: 2
--
given_smiles: CNC(=O)[C@@]12C[C@@H]1[C@@H](n1cnc3c(NCc4cccc(Cl)c4)nc(Cl)nc31)[C@H](O)[C@@H]2O
uom: %
value: 23
--
given_smiles: CNC(=O)[C@@]12C[C@@H]1[C@@H](n1cnc3c(NCc4cccc(Cl)c4)nc(C#Cc4ccccc4Cl)nc31)[C@H](O)[C@@H]2O
uom: %
value: 0
